System: BHT-101
Experiment: drug activity profiling cytotoxicity
Type: cell-based
Settings: Homo sapiens; BHT-101 cell line, Endocrine (Thyroid); read-out: Aza-T-dCyd IC50
Reported Endpoint: pIC50
Answers are plain numbers, as −log10 of the molar value.

Q: Identify pIC50 associated with the compound Nc1ncn([C@H]2CC(O)[C@@H](CO)S2)c(=O)n1 (stereo partly shown) [Aza-T-dCyd, 4′-thio-5-aza-2′-deoxycytidine]
A: 6.63

* * *

System: HuCCT1
Test: drug activity profiling cytotoxicity
Type: cell-based
Conditions: Homo sapiens, HuCCT-1; HuCCT1 cell line, Liver; read-out: Aza-T-dCyd IC50
Reported Endpoint: IC50

Q: Dear colleague, please send me the reported IC50 for Nc1ncn([C@H]2CC(O)[C@@H](CO)S2)c(=O)n1 (stereo partly shown) when you can.
A: 105 nM

* * *

Tested on: BT20
Experiment: drug activity profiling cytotoxicity
Format: cell-based
Conditions: Homo sapiens, BT-20; BT20 cell line, Breast; read-out: Aza-T-dCyd IC50
pIC50: −log10 of the molar value.
Reported Endpoint: pIC50

Q: Indicate the recorded pIC50 value for this compound: Nc1ncn([C@H]2CC(O)[C@@H](CO)S2)c(=O)n1 (stereo partly shown)
A: < 5.00

* * *

System: A204
Assay: drug activity profiling cytotoxicity
Format: cell-based
Conditions: Homo sapiens; A204 cell line, Sarcoma; read-out: Aza-T-dCyd IC50
Reported Endpoint: IC50 (µM)
Numbers only, in µM.

Q: Note down IC50 recorded for Nc1ncn([C@H]2CC(O)[C@@H](CO)S2)c(=O)n1 (stereo partly shown) [Aza-T-dCyd, 4′-thio-5-aza-2′-deoxycytidine]
A: 0.157

* * *

Tested on: H4
Assay: drug activity profiling cytotoxicity
Type: cell-based
Conditions: H4 cell line, CNS (Glioma); read-out: Aza-T-dCyd IC50
Reported Endpoint: IC50 (nM)
Give bare numbers, in nM.

Q: Please look at this molecule and report its IC50: Nc1ncn([C@H]2CC(O)[C@@H](CO)S2)c(=O)n1 (stereo partly shown)
A: 80.1

* * *

System: SK-NEP-1
Experiment: drug activity profiling cytotoxicity
Format: cell-based
Conditions: Homo sapiens; SK-NEP-1 cell line, Kidney; read-out: Aza-T-dCyd IC50
pIC50: −log10 of the molar value.
Reported Endpoint: pIC50

Q: Lab note: record pIC50 of Nc1ncn([C@H]2CC(O)[C@@H](CO)S2)c(=O)n1 (stereo partly shown) tested on SK-NEP-1.
A: < 5.00

* * *

Assay: Pharmacokinetic evaluation in Rat
Type: in vivo
Settings: in vivo; Rat, IV 1 mg/kg
Description: Aza-T-dCyd was administered orally and intravenously at various concentrations to Mice, Rats and Dogs to determine the PK profile.
Reported Endpoint: AUC(0-inf) (ng·h/mL)
One number for each entry, in ng·h/mL.

Q: Read the entry Nc1ncn([C@H]2CC(O)[C@@H](CO)S2)c(=O)n1 (stereo partly shown) and write its reported AUC(0-inf).
A: 1900

* * *

Test: Pharmacokinetic evaluation in Mice (Table 4)
Conditions: mouse, in vivo, Table 4, PO 3 mg/kg, read-out: T½ (converted)
Reported Endpoint: half-life (h)
One number for each entry, in h.

Q: Look up and report measured half-life for this entry: Nc1ncn([C@H]2CC(O)[C@@H](CO)S2)c(=O)n1 (stereo partly shown) [Aza-T-dCyd, 4′-thio-5-aza-2′-deoxycytidine]
A: 1.11

The reported numbers originate from patent US12708630B2.
